Target: PTP1B (GST-PTP1B) (Homo sapiens, UniProt P18031)
Sequence (P18031 1-435): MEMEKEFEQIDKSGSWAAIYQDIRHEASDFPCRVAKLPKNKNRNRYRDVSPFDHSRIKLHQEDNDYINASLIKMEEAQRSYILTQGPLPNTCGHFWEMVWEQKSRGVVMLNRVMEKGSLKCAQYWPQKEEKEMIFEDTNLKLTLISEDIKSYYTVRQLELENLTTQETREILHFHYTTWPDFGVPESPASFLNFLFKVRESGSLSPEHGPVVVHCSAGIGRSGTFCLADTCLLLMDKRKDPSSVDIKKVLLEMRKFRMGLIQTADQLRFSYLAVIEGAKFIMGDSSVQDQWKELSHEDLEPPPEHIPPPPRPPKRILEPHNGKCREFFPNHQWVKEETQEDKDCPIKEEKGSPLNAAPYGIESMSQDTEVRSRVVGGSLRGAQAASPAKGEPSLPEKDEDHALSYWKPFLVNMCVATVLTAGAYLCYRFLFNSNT
Assay: PTP1B inhibition, colorimetric pNPP assay
Type: biochemical
Details: PTP1B, pNPP substrate, compound at 20 μg/mL
Binary call on inhibition at 20 µg/mL: Condition met from 40% upward, Condition not met beneath that.

Solved entries:
>>> class("CCOC(=O)CCCCCNC(=O)c1ccc(C2Nc3cccc4cccc(c34)N2)nc1 [Compound 45]")
"Condition not met"
>>> class("CCOC(=O)CCCCNC(=O)c1ccc(C2Nc3cccc4cccc(c34)N2)cc1 [Compound 13]")
"Condition not met"
>>> class("O=C(O)COc1ccc(C2Nc3cccc4cccc(c34)N2)cc1 [Compound 23]")
"Condition met"

Exercise: Entry O=C(O)CCCCCNC(=O)c1ccc(C2Nc3cccc4cccc(c34)N2)cc1 [Compound 19] : is its inhibition at 20 µg/mL no less than 40%?
Key: Condition met

Exercise: Entry CCOC(=O)CCC(=O)Nc1ccc(C2Nc3cccc4cccc(c34)N2)cc1 [Compound 28] : is its inhibition at 20 µg/mL no less than 40%?
Key: Condition not met

Exercise: Entry O=C(O)CCCC(=O)Nc1ccc(C2Nc3cccc4cccc(c34)N2)cc1 [Compound 33] : is its inhibition at 20 µg/mL no less than 40%?
Key: Condition met

Exercise: Entry Oc1ccc(C2Nc3cccc4cccc(c34)N2)cc1 [Compound 5, 4-(2,3-Dihydro-1H-perimidin-2-yl)phenol] : is its inhibition at 20 µg/mL no less than 40%?
Key: Condition not met

----------
Quantity Name: melting point

Please review the following examples before continuing.
>>> observed("COC(=O)C1CCCN1C(=O)c1ccc(C2Nc3cccc4cccc(c34)N2)cc1 (centres unmarked)")
"171.3 to 176 °C"
>>> observed("O=C(O)CCCCCNC(=O)c1ccc(C2Nc3cccc4cccc(c34)N2)nc1")
"86.7 to 88.4 °C"
>>> observed("O=C(O)COc1ccc(C2Nc3cccc4cccc(c34)N2)cc1")
"> 265 °C"
>>> observed("COC(=O)CNC(=O)c1ccc(C2Nc3cccc4cccc(c34)N2)cc1")
"193.3 to 198.7 °C"
>>> observed("CCOC(=O)CCCCCNC(=O)c1ccc(C2Nc3cccc4cccc(c34)N2)cc1")
"145.8 to 147.4 °C"

Items follow; give melting point for each.
1. COC(=O)CNC(=O)c1ccc(C2Nc3cccc4cccc(c34)N2)nc1
2. O=C(O)CCCCOc1ccc(C2Nc3cccc4cccc(c34)N2)cc1
3. O=C(O)CCCOc1ccc(C2Nc3cccc4cccc(c34)N2)cc1
4. COC(=O)CCCNC(=O)c1ccc(C2Nc3cccc4cccc(c34)N2)nc1
5. O=C(O)C(=O)Nc1ccc(C2Nc3cccc4cccc(c34)N2)cc1

Key:
183.6 to 184.7 °C
165.9 to 167.8 °C
126.3 to 130.9 °C
100.1 to 105.4 °C
> 265 °C

Items follow; give melting point for each.
1. CCOC(=O)CCCCNC(=O)c1ccc(C2Nc3cccc4cccc(c34)N2)cc1
2. O=C(O)c1ccc(C2Nc3cccc4cccc(c34)N2)nc1
3. O=C(O)CCCCNC(=O)c1ccc(C2Nc3cccc4cccc(c34)N2)cc1
4. CCOC(=O)CCCCOc1ccc(C2Nc3cccc4cccc(c34)N2)cc1
5. CCOC(=O)CCCOc1ccc(C2Nc3cccc4cccc(c34)N2)cc1
6. CCOC(=O)C(=O)Nc1ccc(C2Nc3cccc4cccc(c34)N2)cc1
7. O=C(O)CCCCCNC(=O)c1ccc(C2Nc3cccc4cccc(c34)N2)cc1

Key:
1: 141.8 to 143.1 °C; 2: 100.7 to 101.3 °C; 3: 102.8 to 107.4 °C; 4: 93.8 to 96.4 °C; 5: 76.2 to 78.6 °C; 6: 132.3 to 135.5 °C; 7: 90.8 to 91.9 °C

Reference for the values: paper PMC6271978
